Assay: in vivo
Settings: NIH-III, mouse, plasma, ip, 186 mg/kg

[
  {
    "MOLECULE": "c1c2c(cc3nc(CCCN4CCOCC4)nnc13)CCC2 [M13]",
    "UNIT SYMBOL": "µM·h",
    "AUC": 14.3
  }
]

* * *

Test: in vivo
Details: NIH-III, mouse, plasma, ip, 92.8 mg/kg
OBSERVATION TYPE: Cmax (µM)

[
  {
    "SMILES DATA": "c1c2c(cc3nc(CCCN4CCOCC4)nnc13)CCC2",
    "OBSERVATION TYPE": "Cmax",
    "DATA VALUE": 6.63
  }
]

* * *

Test: in vivo
Details: NIH-III, mouse, plasma, ip, 78.3 mg/kg

[
  {
    "MOLECULE": "c1c2c(cc3nc(CCCN4CCOCC4)nnc13)CCC2 [M13]",
    "half-life, min": 31.8
  }
]

* * *

Experiment: in vivo
Conditions: NIH-III, mouse, plasma, ip, 1.86 mg/kg

[
  {
    "SMILES DATA": "c1c2c(cc3nc(CCCN4CCOCC4)nnc13)CCC2",
    "Cmax / nM": 8
  }
]

* * *

Test: Plasma, liver and brain PK after i.p. dosing with M14
Format: in vivo
Conditions: NIH-III nude, mouse, in vivo, ip, 135 mg/kg, i.p. M14 135 mg/kg; brain; read-out: Cmax
OBSERVATION TYPE: Cmax (µM)

[
  {
    "SMILES DATA": "[O-][n+]1nc(CCCN2CCOCC2)nc2cc3c(cc21)CCC3",
    "DATA VALUE": 260
  }
]

* * *

Experiment: in vivo
Conditions: NIH-III, mouse, plasma, ip, 78.3 mg/kg

[
  {
    "SMILES DATA": "c1c2c(cc3nc(CCCN4CCOCC4)nnc13)CCC2",
    "UNIT SYMBOL": "µM·h",
    "AUC": 2.64
  }
]

* * *

Experiment: Plasma, liver and brain PK after i.p. dosing with M14
Format: in vivo
Details: NIH-III nude, mouse, in vivo, ip, 135 mg/kg, i.p. M14 135 mg/kg; plasma; read-out: Cmax
OBSERVATION TYPE: Cmax (µM)

[
  {
    "SMILES DATA": "O=C(O)CCc1nc2cc3c(cc2[n+]([O-])n1)CCC3",
    "DATA VALUE": 144
  },
  {
    "SMILES DATA": "[O-][n+]1nc(CCCN2CCOCC2)nc2cc3c(cc21)CCC3",
    "DATA VALUE": 95.6
  }
]

* * *

Assay: in vivo
Conditions: NIH-III, mouse, in vivo, ip, 78 mg/kg

[
  {
    "COMPOUND": "[O-][n+]1nc(CCCN2CCOCC2)[n+]([O-])c2cc3c(cc21)CCC3 [SN30000]",
    "bioavailability": "~70%"
  }
]

* * *

The reader will find reported Metabolite/SN30000 peak area, Plasma values listed item by item below.
Experiment: Metabolite profile in plasma, liver and HT29 tumor after i.p. SN30000
Format: in vivo, NIH-III mice
Details: SN30000 186 mg/kg i.p., plasma
OBSERVATION TYPE: Metabolite/SN30000 peak area, Plasma

[
  {
    "SMILES DATA": "c1c2c(cc3nc(CCCN4CCOCC4)nnc13)CCC2",
    "DATA VALUE": 0.08
  },
  {
    "SMILES DATA": "[O-][n+]1nc(CCCN2CCOCC2)nc2cc3c(cc21)CCC3",
    "DATA VALUE": 0.35
  },
  {
    "SMILES DATA": "O=C(O)CCc1nc2cc3c(cc2[n+]([O-])n1)CCC3",
    "DATA VALUE": 1.14
  },
  {
    "SMILES DATA": "O=C1COCCN1CCCc1nc2cc3c(cc2[n+]([O-])n1)CCC3",
    "DATA VALUE": 0.03
  },
  {
    "SMILES DATA": "OCCNCCCc1nnc2cc3c(cc2n1)CCC3",
    "DATA VALUE": 0.04
  },
  {
    "SMILES DATA": "[O-][n+]1nc(CCCNCCO)nc2cc3c(cc21)CCC3",
    "DATA VALUE": 0.13
  },
  {
    "SMILES DATA": "[O-][n+]1nc(CCCN2CCOCC2)[n+]([O-])c2cc3c(cc21)CCC3",
    "DATA VALUE": 1.00
  },
  {
    "SMILES DATA": "[O-][n+]1nc(CCC[N+]2([O-])CCOCC2)nc2cc3c(cc21)CCC3",
    "DATA VALUE": 0.26
  },
  {
    "SMILES DATA": "[O-][n+]1nc(CCCN2CCOCC2)nc2cc3c(cc21)CC=C3",
    "DATA VALUE": 0.05
  },
  {
    "SMILES DATA": "O=C(O)CCc1nnc2cc3c(cc2n1)CCC3",
    "DATA VALUE": 0.11
  },
  {
    "SMILES DATA": "[O-][n+]1nc(CCCNCCO)[n+]([O-])c2cc3c(cc21)CCC3",
    "DATA VALUE": 0.06
  },
  {
    "SMILES DATA": "O=C(O)CCc1n[n+]([O-])c2cc3c(cc2[n+]1[O-])CCC3",
    "DATA VALUE": 0.50
  }
]
